Origin of values: ChEMBL document CHEMBL4229392

# MEASUREMENT NOTES: Hemolytic activity in human RBC at 200 uM after 1 hr relative to control
# Assay type: ADME, cell-based, Erythrocyte
# CONDITIONS USED: red blood cells (erythrocytes), read-out: Activity
Recorded hemolysis at 1 h, 200 µM for the following compounds

# COMPOUND, hemolysis at 1 h, 200 µM
records = [
    ("Oc1c(Br)cc(Br)c2nc3cc(Oc4ccccc4)ccc3nc12", "≤ 1%"),
    ("CC1=C(C)C(=O)C(COC(=O)OCOc2c(Br)cc(Br)c3nc4ccccc4nc23)=C(C)C1=O", "≤ 1%"),
    ("COCCOCCOCCOCCOC(=O)Oc1c(Br)cc(Br)c2nc3cc(Oc4ccccc4)ccc3nc12", "≤ 1%"),
    ("CCN(CC)c1ccc2nc3c(O)c(Br)cc(Br)c3nc2c1Br", "≤ 1%"),
    ("Oc1c(Br)cc(Br)c2nc3ccccc3nc12", "≤ 1%"),
    ("c1ccc(CN(CCN(Cc2ccccn2)Cc2ccccn2)Cc2ccccn2)nc1", "≤ 1%"),
    ("Oc1c(Br)cc(Br)c2nc3cc(Cl)ccc3nc12", "≤ 1%"),
    ("Cc1ccc2nc3c(O)c(Br)cc(Br)c3nc2c1", "≤ 1%"),
    ("CC(C)(C)c1ccc2nc3c(O)c(Br)cc(Br)c3nc2c1", "≤ 1%"),
    ("OC[C@H]1O[C@@H](Oc2c(Br)cc(Br)c3nc4ccccc4nc23)[C@H](O)[C@@H](O)[C@@H]1O", "≤ 1%"),
    ("CC(=O)NC[C@H]1CN(c2ccc(N3CCOCC3)c(F)c2)C(=O)O1 [LINEZOLID]", "≤ 1%"),
    ("CN[C@H](CC(C)C)C(=O)N[C@H]1C(=O)N[C@@H](CC(N)=O)C(=O)N[C@H]2C(=O)N[C@H]3C(=O)N[C@H](C(=O)N[C@H](C(=O)O)c4cc(O)cc(O)c4-c4cc3ccc4O)[C@H](O)c3ccc(c(Cl)c3)Oc3cc2cc(c3O[C@@H]2O[C@H](CO)[C@@H](O)[C@H](O)[C@H]2O[C@H]2C[C@](C)(N)[C@H](O)[C@H](C)O2)Oc2ccc(cc2Cl)[C@H]1O [VANCOMYCIN]", "≤ 1%"),
    ("CS(=O)(=O)N1CCN(C(=O)Oc2c(Br)cc(Br)c3nc4ccccc4nc23)C1=O", "≤ 1%"),
]
